Give measured half-life at 263 µg/mL for each item. Keep answers brief.
assay_notes: Degradation of apelin peptides by plasma from fasted normal NIH Swiss mice (rp-HPLC, MALDI-TOF MS)
Type: in vitro ADME
study_conditions: NIH Swiss, mouse, plasma, pH 7.4
Numbers only, in h.

CSCC[C@H](NC(=O)[C@@H]1CCCN1C(=O)CNC(=O)[C@H](CCCCN)NC(=O)[C@H](Cc1c[nH]cn1)NC(=O)[C@H](CO)NC(=O)[C@H](CC(C)C)NC(=O)[C@H](CCCNC(=N)N)NC(=O)[C@@H]1CCCN1C(=O)[C@H](CCCNC(=N)N)NC(=O)[C@@H](N)CCC(N)=O)C(=O)N1CCC[C@H]1C(=O)N[C@@H](Cc1ccccc1)C(N)=O [Apelin-13-amide] | 11.4

In the following, a different compound is considered.
So what does the record say about half-life at 263 µg/mL for "CSCC[C@H](NC(=O)[C@@H]1CCCN1C(=O)CNC(=O)[C@H](CCCCN)NC(=O)[C@H](Cc1c[nH]cn1)NC(=O)[C@H](CO)NC(=O)[C@H](CC(C)C)NC(=O)[C@H](CCCNC(=N)N)NC(=O)[C@@H]1CCCN1C(=O)[C@H](CCCNC(=N)N)NC(=O)[C@@H](N)CCC(N)=O)C(=O)N1CCC[C@H]1C(=O)N[C@@H](Cc1ccc(O)cc1)C(=O)O" ?
8.5

###

assay_notes: Degradation of apelin peptides by plasma from fasted normal NIH Swiss mice (rp-HPLC, MALDI-TOF MS)
Format: in vitro ADME
study_conditions: NIH Swiss, mouse, plasma, pH 7.4
Give measured half-life at 263 µg/mL for each item. Keep answers brief.
Give bare numbers, in h.

The following molecules have reported results that may help.
CSCC[C@H](NC(=O)[C@@H]1CCCN1C(=O)CNC(=O)[C@H](CCCCN)NC(=O)[C@H](Cc1c[nH]cn1)NC(=O)[C@H](CO)NC(=O)[C@H](CC(C)C)NC(=O)[C@H](CCCNC(=N)N)NC(=O)[C@@H]1CCCN1C(=O)[C@H](CCCNC(=N)N)NC(=O)[C@@H](N)CCC(N)=O)C(=O)N1CCC[C@H]1C(=O)N[C@H](C(=O)O)C(C)C [(Val^13)apelin-13] | 7.7
CSCC[C@H](NC(=O)[C@@H]1CCCN1C(=O)CNC(=O)[C@H](CCCCN)NC(=O)[C@H](Cc1c[nH]cn1)NC(=O)[C@H](CO)NC(=O)[C@H](CC(C)C)NC(=O)[C@H](CCCNC(=N)N)NC(=O)[C@@H]1CCCN1C(=O)[C@H](CCCNC(=N)N)NC(=O)[C@@H]1CCC(=O)N1)C(=O)N1CCC[C@H]1C(=O)N[C@H](C(=O)O)C(C)C [pGlu(Val^13)apelin-13, pGlu (Val^13)apelin-13] | 9.8
CSCC[C@H](NC(=O)[C@@H]1CCCN1C(=O)CNC(=O)[C@H](CCCCN)NC(=O)[C@H](Cc1c[nH]cn1)NC(=O)[C@H](CO)NC(=O)[C@H](CC(C)C)NC(=O)[C@H](CCCNC(=N)N)NC(=O)[C@@H]1CCCN1C(=O)[C@H](CCCNC(=N)N)NC(=O)[C@@H]1CCC(=O)N1)C(=O)N1CCC[C@H]1C(=O)N[C@@H](Cc1ccccc1)C(N)=O [(pGlu)apelin-13-amide] | 10.4

So what does the record say about half-life at 263 µg/mL for CSCC[C@H](NC(=O)[C@@H]1CCCN1C(=O)CNC(=O)[C@H](CCCCN)NC(=O)[C@H](Cc1c[nH]cn1)NC(=O)[C@H](CO)NC(=O)[C@H](CC(C)C)NC(=O)[C@H](CCCNC(=N)N)NC(=O)[C@@H]1CCCN1C(=O)[C@H](CCCNC(=N)N)NC(=O)[C@@H](N)CCC(N)=O)C(=O)N1CCC[C@H]1C(=O)N[C@@H](C)C(=O)O [(Ala^13)apelin-13, reference compound] ?
10.3
